Would you mind telling me the reported self-splicing fitness (ln) of each entry?
# test.summary: self-splicing fitness, log relative to wild type (ln ratio); higher = more splicing; Tetrahymena group I intron in knt gene, E. coli kanamycin selection, DiMSum; sequences stand for … in CUCUCU…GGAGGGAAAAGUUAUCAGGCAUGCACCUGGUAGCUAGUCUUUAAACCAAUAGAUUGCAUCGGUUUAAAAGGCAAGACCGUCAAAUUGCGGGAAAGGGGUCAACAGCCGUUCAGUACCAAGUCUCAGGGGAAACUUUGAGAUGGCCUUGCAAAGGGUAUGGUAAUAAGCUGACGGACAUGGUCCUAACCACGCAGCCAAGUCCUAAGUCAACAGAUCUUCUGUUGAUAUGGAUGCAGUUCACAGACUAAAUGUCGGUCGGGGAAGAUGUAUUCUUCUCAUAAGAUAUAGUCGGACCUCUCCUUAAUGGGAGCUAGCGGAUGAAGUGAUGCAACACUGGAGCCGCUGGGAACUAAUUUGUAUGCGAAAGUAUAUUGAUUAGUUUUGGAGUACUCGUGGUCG;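 also: selection with 25 µg/mL kanamycin versus none on LB agar overnight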
# applied.conditions: 37 °C
Numbers only.

# count of solved cases: 5
AUUUAGCAAUAUUACGGUCG -1.38
CACAAGCAAUAUUACGUACA -1.46
GGGAAGCAAUAUUACGCUGA -1.54
UCAUAGCAAUAUUACGCAUU -3.04
AUAGAGCAAUAUUACGCCGC -2.75

Below are some sequences; for each one, tell me its self-splicing fitness (ln).
1. CUAGAGCAAUAUUACGCUCU
2. UCUCAGCAAUAUUACGAUGG
3. GUCCAGCAAUAUUACGCGCG

Out:
-2.8
-1
-0.665

---

# test.summary: self-splicing fitness, log relative to wild type (ln ratio); higher = more splicing; Tetrahymena group I intron in knt gene, E. coli kanamycin selection, DiMSum; sequences stand for … in CUCUCU…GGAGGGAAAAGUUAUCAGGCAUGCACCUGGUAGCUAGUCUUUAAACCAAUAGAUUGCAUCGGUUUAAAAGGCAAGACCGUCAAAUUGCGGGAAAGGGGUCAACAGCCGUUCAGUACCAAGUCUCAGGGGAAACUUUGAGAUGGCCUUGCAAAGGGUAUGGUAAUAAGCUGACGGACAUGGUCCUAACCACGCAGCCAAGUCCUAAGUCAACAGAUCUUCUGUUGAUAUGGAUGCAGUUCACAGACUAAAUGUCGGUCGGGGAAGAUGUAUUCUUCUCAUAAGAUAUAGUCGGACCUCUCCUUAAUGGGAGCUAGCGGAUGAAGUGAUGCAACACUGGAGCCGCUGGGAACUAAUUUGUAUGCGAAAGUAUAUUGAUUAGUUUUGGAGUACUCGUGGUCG
# applied.conditions: 37 °C
measured.quantity: self-splicing fitness (ln)
One number for each entry.

AACCAGCAAUAUUACGAAUG -1.89
GAAGAGCAAUAUUACGCGGG -2.65
AUUGAGCAAUAUUACGACGA -0.517
UUAUAGCAAUAUUACGAGCG -0.754
AGAUAGCAAUAUUACGCAUC -1.91

Below are 8 sequences. Give each one its self-splicing fitness (ln).
1. AACGAGCAAUAUUACGAGGU
2. GUUAAGCAAUAUUACGGACU
3. AGUUAGCAAUAUUACGCUUG
4. AGCCAGCAAUAUUACGACCU
5. CACAAGCAAUAUUACGCGGG
6. CCCAAGCAAUAUUACGCUGC
7. CUGCAGCAAUAUUACGAUUA
8. CCAAAGCAAUAUUACGGAAA

Out:
1. -1.96
2. -1.8
3. -1.83
4. 0.00767
5. -0.984
6. -2.43
7. -2.32
8. -3

Give me self-splicing fitness (ln) for each of these sequences, listed below.
1. CGAUAGCAAUAUUACGACUA
2. GGCUAGCAAUAUUACGGUGU
3. CAAGAGCAAUAUUACGGCUG
4. GAGUAGCAAUAUUACGUUAG
5. GUUCAGCAAUAUUACGGCGG
6. CCCCAGCAAUAUUACGGCGA
7. AAUCAGCAAUAUUACGUCCG
8. UAGUAGCAAUAUUACGCAUG

Out:
[-2.13, 0.178, -0.473, -2.96, -2.06, -1.64, -0.00732, -0.443]

---

# test.summary: self-splicing fitness, log relative to wild type (ln ratio); higher = more splicing; Tetrahymena group I intron in knt gene, E. coli kanamycin selection, DiMSum; sequences stand for … in CUCUCU…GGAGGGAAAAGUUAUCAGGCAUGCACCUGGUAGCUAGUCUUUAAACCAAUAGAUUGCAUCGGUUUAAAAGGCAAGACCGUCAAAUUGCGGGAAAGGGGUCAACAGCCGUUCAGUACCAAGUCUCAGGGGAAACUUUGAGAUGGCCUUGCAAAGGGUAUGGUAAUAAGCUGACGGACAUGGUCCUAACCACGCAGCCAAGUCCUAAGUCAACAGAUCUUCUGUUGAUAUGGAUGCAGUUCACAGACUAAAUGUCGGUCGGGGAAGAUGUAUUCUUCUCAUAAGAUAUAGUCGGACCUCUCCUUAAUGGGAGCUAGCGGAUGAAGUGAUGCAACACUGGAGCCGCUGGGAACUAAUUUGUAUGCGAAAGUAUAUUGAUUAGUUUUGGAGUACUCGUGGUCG
# applied.conditions: 30 °C
Outcome: YES for self-splicing fitness (ln) of at least -1; NO for anything lower.

In: Does `AAGAAGCAAUAUUACGAUCC` have a reported self-splicing fitness (ln) of at least -1?
Out: YES

In: Could you please find out whether `UCUAAGCAAUAUUACGAUAC` has self-splicing fitness (ln) that meets -1 or exceeds it?
Out: NO

In: Given the entry `CAUCAGCAAUAUUACGGCUA` , answer whether its self-splicing fitness (ln) meets or surpasses -1.
Out: NO

In: Check if self-splicing fitness (ln) >= -1 (inclusive). Item: `GCGCAGCAAUAUUACGCCGC`
Out: NO

In: Is reported self-splicing fitness (ln) greater than or equal to -1 here: `UCACAGCAAUAUUACGUUCA`
Out: YES

In: Please indicate if the recorded self-splicing fitness (ln) for `GGGAAGCAAUAUUACGUUUU` meets or exceeds -1.
Out: NO

In: Dear colleague, could you confirm whether `UCCAAGCAAUAUUACGGCUU` has self-splicing fitness (ln) at or above -1?
Out: NO

---

# test.summary: self-splicing fitness, log relative to wild type (ln ratio); higher = more splicing; Tetrahymena group I intron in knt gene, E. coli kanamycin selection, DiMSum; sequences stand for … in CUCUCU…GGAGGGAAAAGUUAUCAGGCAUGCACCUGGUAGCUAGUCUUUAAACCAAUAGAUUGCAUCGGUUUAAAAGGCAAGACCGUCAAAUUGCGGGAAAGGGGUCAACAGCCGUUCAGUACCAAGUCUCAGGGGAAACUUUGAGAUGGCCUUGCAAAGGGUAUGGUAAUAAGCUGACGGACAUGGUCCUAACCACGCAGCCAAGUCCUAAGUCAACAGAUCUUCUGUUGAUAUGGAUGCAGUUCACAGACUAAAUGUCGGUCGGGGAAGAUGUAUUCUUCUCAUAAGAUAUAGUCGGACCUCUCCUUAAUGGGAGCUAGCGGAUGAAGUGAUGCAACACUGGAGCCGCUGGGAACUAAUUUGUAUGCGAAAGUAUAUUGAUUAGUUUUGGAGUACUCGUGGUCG
# applied.conditions: 37 °C
Exercise: for every item that follows, state its recorded self-splicing fitness (ln).
Give bare numbers.

GCUCAGCAAUAUUACGCGUA -0.265
ACGUAGCAAUAUUACGAAGU -2.86
UGCGAGCAAUAUUACGUAAG -2.34
AGUAAGCAAUAUUACGAACA -0.282
AACCAGCAAUAUUACGGUUA -0.269

Give measured self-splicing fitness (ln) for every item shown.
1. CCUAAGCAAUAUUACGUGUG
2. AUUGAGCAAUAUUACGGAAG
3. UGGGAGCAAUAUUACGCACU

Out:
-1.49
-2.63
-1.76

---

# test.summary: self-splicing fitness, log relative to wild type (ln ratio); higher = more splicing; Tetrahymena group I intron in knt gene, E. coli kanamycin selection, DiMSum; sequences stand for … in CUCUCU…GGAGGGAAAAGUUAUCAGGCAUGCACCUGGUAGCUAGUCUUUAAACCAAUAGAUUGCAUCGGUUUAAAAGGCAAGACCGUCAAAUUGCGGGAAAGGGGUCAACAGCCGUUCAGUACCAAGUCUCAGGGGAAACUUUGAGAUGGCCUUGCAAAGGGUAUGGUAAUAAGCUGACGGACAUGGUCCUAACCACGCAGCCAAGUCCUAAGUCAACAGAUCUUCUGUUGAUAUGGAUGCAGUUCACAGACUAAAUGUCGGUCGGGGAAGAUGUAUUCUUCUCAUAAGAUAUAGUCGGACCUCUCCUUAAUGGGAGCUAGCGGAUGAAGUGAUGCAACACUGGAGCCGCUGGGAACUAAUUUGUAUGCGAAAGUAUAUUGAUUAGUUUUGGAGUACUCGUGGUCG
# applied.conditions: 37 °C
Decision: self-splicing fitness (ln) >= -1 yields 1, all other cases yield -1.

// below: answered sequences
AUCGAGCAAUAUUACGUGAC -1
GGCGAGCAAUAUUACGAUAA 1
AGUUAGCAAUAUUACGGACA 1
GUACAGCAAUAUUACGUGUC -1
CGGCAGCAAUAUUACGCCGA -1
UGGUAGCAAUAUUACGGGCG 1
AGCAAGCAAUAUUACGGUGA 1
GGUUAGCAAUAUUACGACAG 1
GCGCAGCAAUAUUACGGGAU -1
CUACAGCAAUAUUACGCAGG -1

In: Threshold query (self-splicing fitness (ln) >= -1) on `GUUGAGCAAUAUUACGAUAA`
Out: -1

In: Does `GCGCAGCAAUAUUACGAUUG` have a reported self-splicing fitness (ln) of at least -1?
Out: -1

In: API: above_or_equal(metric=self-splicing fitness (ln), cutoff=-1) for item `CAUUAGCAAUAUUACGCAGU`
Out: -1

In: Confirm if self-splicing fitness (ln) reported for the sequence `AACAAGCAAUAUUACGUCAU` is -1 or above.
Out: -1
